The reported numbers originate from the supplement of paper PMC10567573.

- TEST PROTOCOL: protein stability index of a GFP-peptide fusion (GPS, HEK-293T) (PSI 1-6); higher = more stable;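 also: 24-mer peptide tiles fused after GFP, lentivirally expressed, FACS-sorted into six equal bins by GFP/DsRed ratio, decoded by Illumina sequencing, PSI is the read-weighted mean bin number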
- RECORDED CONDITIONS: treatment: DMSO; c terminus: a fixed tail appended
Give met when the value for protein stability index is at least 3. Give not met when it is less.

[[record]]
sequence_data = "VQRLTSRAARDYKIQNHGHRVLQR [FCHSD1]"
class_assignment = "met"

[[record]]
sequence_data = "YMVRRYFNKPSRVPAPEAFRDPIW [MYORG]"
class_assignment = "not met"

[[record]]
sequence_data = "KLSPLRDRLVVTECQLTHSHPACP [ZSWIM9]"
class_assignment = "met"

[[record]]
sequence_data = "QPPVPSLSEVKPPPPPPPAQTFLF [TRADD]"
class_assignment = "met"


====

- TEST PROTOCOL: protein stability index of a GFP-peptide fusion (GPS, HEK-293T) (PSI 1-6); higher = more stable
- RECORDED CONDITIONS: treatment: DMSO; c terminus: a fixed tail appended
Each entry below carries its recorded protein stability index.
VALUE TYPE: protein stability index

[[record]]
sequence_data = "GSGAPSPLSKSSPATTVTSPNSTP [SNAP91]"
assay_value = 5.44

[[record]]
sequence_data = "RYPELDTPKLDCFLSGMEAAPRTL [TBX6]"
assay_value = 3.5

[[record]]
sequence_data = "DYRKQLQYPNPLPVLSGAELEKAH [VPS39]"
assay_value = 4.5

[[record]]
sequence_data = "WVTFQVLLYTSLPDFCHKFLPGYV [DHCR7]"
assay_value = 3.4

[[record]]
sequence_data = "AAVEGSGGSGGGSHHHHQSRGACT [KCNA4]"
assay_value = 4.97

[[record]]
sequence_data = "VRTLEGVFQHHQYLSPLERKRLAR [VENTX]"
assay_value = 3.23

[[record]]
sequence_data = "NGLTPKKKIQVNSKPSIQPKPLLL [ATF6]"
assay_value = 3.48

[[record]]
sequence_data = "RLEREERNQTQVLRQQQDEAYLAS [FAF2]"
assay_value = 4.96

[[record]]
sequence_data = "DSRLMCSSVQKALFEEEDHVKKLQ [CCDC3]"
assay_value = 4.71

[[record]]
sequence_data = "SARYVLPDEAARARLLQEGGGGVA [DUSP5]"
assay_value = 4.33

[[record]]
sequence_data = "TSSPAIWKFPVPVLKTSRSTPLSP [KLHL13]"
assay_value = 3.19

[[record]]
sequence_data = "YESDSSNHCMLSPSSSGHLADSDT [C18orf25]"
assay_value = 5.18

[[record]]
sequence_data = "VLFAVGGWCSGDAISSVERYDPQT [KLHL20]"
assay_value = 2.12

[[record]]
sequence_data = "SSEHFEKLHEIFRGLHEDLQGVPE [VTI1B]"
assay_value = 4.11

[[record]]
sequence_data = "FQGSQGRAYLFNSVVNVGCGPAEE [YPEL3]"
assay_value = 2.57

[[record]]
sequence_data = "SHGANVNHTTVTNSTPLRAACFDG [FEM1B]"
assay_value = 4.02

[[record]]
sequence_data = "FDTFIQKTKKLYIDSRARRNLGSI [SEC22B]"
assay_value = 2.48

[[record]]
sequence_data = "QDAPLSDCTETIEGLELTEQTFSP [ADD1]"
assay_value = 5.46

[[record]]
sequence_data = "PSVKYLSHPRVQSGCDKEALLTGG [RNF180]"
assay_value = 3.99

[[record]]
sequence_data = "FEQYCAWQLFLAHNIPLETIIPIL [INTS3]"
assay_value = 3.27

[[record]]
sequence_data = "SENLEEETENIIAANHWVLPAAEF [TRIP13]"
assay_value = 4.8

[[record]]
sequence_data = "GRQLEKVPEKRDSGMTEVERTYSA [SPATS1]"
assay_value = 5.22

[[record]]
sequence_data = "NTNTLKVPECRLAEDLGNLWENTR [SPOPL]"
assay_value = 3.22

[[record]]
sequence_data = "ENANLQEYVEKETQEKKRLSRTNE [MTUS2]"
assay_value = 5.33

[[record]]
sequence_data = "MQDYVRTGTYQRAILQNHTDFKDK [CARM1]"
assay_value = 3.92

[[record]]
sequence_data = "KQILDGVHYLHSKRIAHFDLKPEN [DAPK3]"
assay_value = 2.91

[[record]]
sequence_data = "ARLLCRLQAFGETLLLELEQDSGV [ADAMTS4]"
assay_value = 2.66

[[record]]
sequence_data = "ATFNCLNKRLAKYRMRNVHPKPKL [CLCN6]"
assay_value = 2.56

[[record]]
sequence_data = "MSLLHLGALYGITLIPTCKFYTWL [SCD]"
assay_value = 3.01


====

- TEST PROTOCOL: protein stability index of a GFP-peptide fusion (GPS, HEK-293T) (PSI 1-6); higher = more stable
- RECORDED CONDITIONS: treatment: MLN4924 1 uM, 8 h; c terminus: a fixed tail appended
Each entry below carries its recorded protein stability index.
VALUE TYPE: protein stability index

[[record]]
sequence_data = "YQYFVCPVEYRSDVNSFVTECEPS [CDS1]"
assay_value = 2.36

[[record]]
sequence_data = "KATFMYEQFPELMNMLWSRMLKDN [CLINT1]"
assay_value = 2.37

[[record]]
sequence_data = "SARYVLPDEAARARLLQEGGGGVA [DUSP5]"
assay_value = 4.13

[[record]]
sequence_data = "NNGIFQINSRRWCSNLTPNVPNVC [SPACA3]"
assay_value = 2.63

[[record]]
sequence_data = "AARLLFNMAGVTFRKFIPKCSKIV [DCTD]"
assay_value = 2

[[record]]
sequence_data = "YVDIQGLTASTMEILLDFVYTETV [KLHL12]"
assay_value = 3.1

[[record]]
sequence_data = "QDTELPKAEECDTITLNCPRNSDM [EDARADD]"
assay_value = 5.42

[[record]]
sequence_data = "SGHALRILIVDWDVHHGNGTQHMF [HDAC6]"
assay_value = 3.02

[[record]]
sequence_data = "FACPSKTDFFKNIMNFIDIVAIIP [KCNA1]"
assay_value = 3.1

[[record]]
sequence_data = "PGLGQESKAPGSCDPGTDPCPEDA [TLE6]"
assay_value = 5.55

[[record]]
sequence_data = "KLVHFLLLKYRAREPVTKAEMLGS [MAGEA6]"
assay_value = 2.78

[[record]]
sequence_data = "GEASYSTIAPTLIADLFVADQRSR [SPNS1]"
assay_value = 3.29


====

Each entry below carries its recorded protein stability index.
- TEST PROTOCOL: protein stability index of a GFP-peptide fusion (GPS, HEK-293T) (PSI 1-6); higher = more stable
- RECORDED CONDITIONS: treatment: MLN4924 1 uM, 8 h; c terminus: a fixed tail appended
VALUE TYPE: protein stability index

[[record]]
sequence_data = "DDEFFHFVLLCFAIGALLVCYHYY [TMEM40]"
assay_value = 2.37

[[record]]
sequence_data = "KQYQQRAFGWFRCSSCQRSWASAQ [RTP4]"
assay_value = 2.25

[[record]]
sequence_data = "VAPATWSAGVPPSAPLQGAVPPTS [SNAP91]"
assay_value = 4.39


====

Each entry below carries its recorded protein stability index.
- TEST PROTOCOL: protein stability index of a GFP-peptide fusion (GPS, HEK-293T) (PSI 1-6); higher = more stable
- RECORDED CONDITIONS: treatment: DMSO; c terminus: a fixed tail appended
VALUE TYPE: protein stability index

[[record]]
sequence_data = "MLQKPKSVKLRALRSPRKFGVAGR [DFFB]"
value_type = "protein stability index"
assay_value = 2.94

[[record]]
sequence_data = "KHYRLQFYMFAWTHVTLLITVTQS [CDS1]"
value_type = "protein stability index"
assay_value = 2.93

[[record]]
sequence_data = "CSYTDLLPQDEGGGGYSSVRYSDC [KCNA4]"
value_type = "protein stability index"
assay_value = 2.67

[[record]]
sequence_data = "RHRQEVLCKEMVPLAEQTPLTLQS [ZSCAN9]"
value_type = "protein stability index"
assay_value = 4.31

[[record]]
sequence_data = "KGTSPSSKYVKLNVGGALYYTTMQ [KCTD10]"
value_type = "protein stability index"
assay_value = 2.28

[[record]]
sequence_data = "SWACAFTNALTHTVAMSTLNFCGP [OR3A1]"
value_type = "protein stability index"
assay_value = 3.47

[[record]]
sequence_data = "VTLIVDNTRFVVDPSIFTAQPNTM [BTBD10]"
value_type = "protein stability index"
assay_value = 2.84

[[record]]
sequence_data = "IHFTLIQAFCCENDINILRVSNPG [GADD45A]"
value_type = "protein stability index"
assay_value = 3

[[record]]
sequence_data = "SSDRSRDSSHERTESQLTPCIRNV [BTBD10]"
value_type = "protein stability index"
assay_value = 5.06

[[record]]
sequence_data = "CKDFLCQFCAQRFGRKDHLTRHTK [PLAGL1]"
value_type = "protein stability index"
assay_value = 2.63

[[record]]
sequence_data = "KSQTACLPFVLAAAVSRKKKRRMG [EHMT1]"
value_type = "protein stability index"
assay_value = 3.38

[[record]]
sequence_data = "AVGQDCYTRIWSLHDARLLRTIPS [DCAF4]"
value_type = "protein stability index"
assay_value = 2.48

